# EXPERIMENT_NOTES: Ratio of drug concentration in brain to plasma in Sprague-Dawley rat at 1 mg/kg, po measured after 1 hrs by LC-MS/MS analysis
# Assay type: ADME, organism-based
# PROTOCOL_CONDITIONS: read-out: BPR
EXPERIMENTAL_ENDPOINT: Kp at 1 h
Give your answer as a number; write no unit.

Task: # lookup: Kp at 1 h of O=S1(=O)NCc2cccc(-c3ccc(-c4ccccc4F)cc3)c2O1
Result: 1.63

---

# EXPERIMENT_NOTES: Drug concentration in Sprague-Dawley rat brain at 1 mg/kg, po measured after 1 hr by LC-MS/MS analysis
# Format: ADME, organism-based
# PROTOCOL_CONDITIONS: read-out: Ct
EXPERIMENTAL_ENDPOINT: concentration at 1 h (ng/g)
Give a bare numeral; the unit ng/g is implied.

Task: # lookup: concentration at 1 h of O=S1(=O)NCc2cccc(-c3ccc(-c4ccccc4F)cc3)c2O1
Result: 217
